Values from patent US20260199359A1

Can you tell me Vehicle pH for the items I'm about to list?
- procedure.details: Apparent pH of solvent systems before API addition and of saturated supernatant
- Format: physicochemical
- setup.conditions: SSCR01 with 3.50% w/w of the named base, before API addition
One number for each entry.

{"columns": ["compound", "Vehicle pH"],
 "data": [
  ["CC(O)CNCC(C)O (centres unmarked)", 10.63]
]}

Provide reported Vehicle pH for each item, in the same order as listed.
1. CC(C)(N)CO
2. CCC(N)(CO)CO
3. OCCNCCO
4. NC(CO)(CO)CO

Outgoing:
1: 11.44; 2: 10.38; 3: 10.88; 4: 10.08
